The reported measurements were obtained from the supplement of paper PMC13380429.

test system: Caco-2; experiment: cell viability relative to DMSO; higher = less toxic; conditions: 72 h; 100 nM
In plain terms, low cell viability, meaning strictly below 90%, gives TRUE, and everything else gives FALSE.

compound="O=C(NCCCN1CCCCCC1)C(c1ccccc1)C1CCCCC1 (stereo not drawn)" label_value=FALSE
compound=NC(=O)[C@@H](CC1CC1)[C@@H](CCC(F)(F)F)C(=O)N[C@H]1N=C(c2ccccc2)c2cccc(F)c2NC1=O label_value=FALSE
compound="CCCCCCCCCCCCCCCCOP(=O)([O-])OCC[N+](C)(C)C [miltefosine]" label_value=FALSE
compound="CC(=O)N[C@@H](CC(C)C)C(=O)O [acetyl-l-leucine]" label_value=TRUE
compound=COc1ccc2[nH]c(C(=O)c3ccccc3)cc2c1 label_value=TRUE
compound=Nc1ncc(Cc2ccc(Br)cc2)s1 label_value=TRUE
compound="CC[C@H]1CN2CC[C@H]1C[C@@H]2[C@@H](O)c1ccnc2ccc(OC)cc12 [hydroquinidine]" label_value=FALSE
compound="O=C(Nc1ccccc1)c1cc([N+](=O)[O-])ccc1Cl [GW-9662]" label_value=FALSE
compound="COc1cc2c(CCNC(C)=O)c[nH]c2cc1Cl [6-chloromelatonin]" label_value=FALSE

###

system: Vero E6; assay: cell viability relative to DMSO; higher = less toxic; conditions: 72 h; 1 nM
Overview of reported cell viability across a group of compounds:
recorded.metric: cell viability (%)

compound=CC(=O)Nc1cccc(O)c1 tgt="Vero E6" recorded_metric="cell viability" value=102
compound="NCc1ccccc1CC(=O)N[C@@H]1C(=O)N2C(C(=O)O)=C(CSc3nnnn3CC(=O)O)CS[C@H]12 [ceforanide]" tgt="Vero E6" recorded_metric="cell viability" value=97.3
compound="COc1ccc(COc2cc3oc(=O)c4cc(C(C)O)ccc4c3cc2OC)cc1 (stereo unspecified)" tgt="Vero E6" recorded_metric="cell viability" value=101
compound=CC[C@H]1[C@@H]2C[C@H]3[C@@H]4N(C)c5ccccc5[C@]45C[C@@H]([C@@H]2[C@H]5O)N3[C@@H]1O tgt="Vero E6" recorded_metric="cell viability" value=96.1
compound=O=C(O)Cc1sc(-c2ccccc2)nc1-c1ccc(Cl)cc1 tgt="Vero E6" recorded_metric="cell viability" value=99.3
compound="COC(=O)C1=C(C)NC(C)=C(C(=O)OCCN(C)Cc2ccccc2)C1c1cccc([N+](=O)[O-])c1 (stereo unspecified)" tgt="Vero E6" recorded_metric="cell viability" value=93.2
compound=COc1ccc(CN(CCN(C)C)c2ncccn2)cc1 tgt="Vero E6" recorded_metric="cell viability" value=102
compound=CCOC(=O)[C@H](CCc1ccccc1)N[C@H]1CCc2ccccc2N(CC(=O)O)C1=O tgt="Vero E6" recorded_metric="cell viability" value=103
compound=COc1cc2ncnc(Nc3ccc(Cl)cc3F)c2cc1OC tgt="Vero E6" recorded_metric="cell viability" value=100
compound="CCOC(=O)C1=C[C@@H](OC(CC)CC)[C@H](NC(C)=O)[C@@H](N)C1 [oseltamivir-phosphate]" tgt="Vero E6" recorded_metric="cell viability" value=95.4
compound="CCC1(C2=NCCN2)Cc2ccccc2O1 (stereo unspecified)" tgt="Vero E6" recorded_metric="cell viability" value=102

###

Overview of reported cell viability across a group of compounds:
test system: HepG2; test: cell viability relative to DMSO; higher = less toxic; conditions: 72 h; 1000 nM
recorded.metric: cell viability (%)

compound="C#C[C@]1(OC(C)=O)CC[C@H]2[C@@H]3CCC4=C[C@@H](OC(C)=O)CC[C@@H]4[C@H]3CC[C@@]21C [ethynodiol-diacetate]" recorded_metric="cell viability" value=103
compound="CCN1C[C@]2(OC(=O)c3ccccc3NC(C)=O)CC[C@H](OC)[C@@]34[C@@H]2C[C@@H]([C@@H]13)[C@@]1(O)C[C@H](OC)[C@H]2C[C@@H]4[C@]1(O)[C@H]2OC [lappaconite]" recorded_metric="cell viability" value=100
compound="CCOC(=O)[C@@H](N)Cc1ccc(-c2cc(O[C@H](c3ccc(Cl)cc3-n3ccc(C)n3)C(F)(F)F)nc(N)n2)cc1 [telotristat-ethyl]" recorded_metric="cell viability" value=102
compound="C#CCOC(=O)C1=CCCN(C)C1 [arecaidine-propargyl-ester]" recorded_metric="cell viability" value=102
compound="NC(=O)CN1CCCC1=O [piracetam]" recorded_metric="cell viability" value=98.5
compound="CON(C)C(=O)N1N=C(c2cc(F)ccc2F)S[C@@]1(CCCN)c1ccccc1 [filanesib]" recorded_metric="cell viability" value=34.1
compound="CCS(=O)(=O)Nc1ccc2c(c1)/C(=C(/Nc1ccc(CN3CCCCC3)cc1)c1ccccc1)C(=O)N2 [hesperadin]" recorded_metric="cell viability" value=8.8
compound="CCCc1nc(C(C)(C)O)c(C(=O)O)n1Cc1ccc(-c2ccccc2-c2nnn[nH]2)cc1 [olmesartan]" recorded_metric="cell viability" value=98.7
compound="COc1nc(C)nc(Cl)c1NC1=NCCN1 [moxonidine]" recorded_metric="cell viability" value=104
compound="CCC(=O)O[C@H]1[C@H](O[C@@H]2[C@@H](C)[C@H](O[C@H]3C[C@@](C)(OC)[C@@H](O)[C@H](C)O3)[C@@H](C)C(=O)O[C@H](CC)[C@@](C)(O)[C@H](O)[C@@H](C)C(=O)[C@H](C)C[C@@]2(C)O)O[C@H](C)C[C@@H]1N(C)C [erythromycin-estolate]" recorded_metric="cell viability" value=93.2
compound=COc1ccc2cccc(N3CCN(CCNC(=O)c4ccc(F)cc4)CC3)c2c1 recorded_metric="cell viability" value=95.4
compound="O=C(O)[C@@H]1C[C@@H](C2CCCCC2)CN1C(=O)CP(=O)(O)CCCCc1ccccc1 [fosinoprilat]" recorded_metric="cell viability" value=101
compound="CN(C)c1ccc(/C=C2\\C(=O)Nc3ccccc32)cc1 [SU4312]" recorded_metric="cell viability" value=69.5
compound="O=C(NCCN1CCC2(CC1)C(=O)NCN2c1cccc(F)c1)c1ccc(F)c(F)c1 [ML298]" recorded_metric="cell viability" value=97.7
